// values below are reported melting point

smiles-string | melting point
C/C(F)=C1/CC[C@H]2[C@@H]3CC=C4C[C@@H](O)CC[C@]4(C)[C@H]3CC[C@]12C | 129 to 133 °C
C/C(F)=C1\CC[C@H]2[C@@H]3CC=C4C[C@@H](O)CC[C@]4(C)[C@H]3CC[C@]12C | 153 to 155 °C
C[C@]12CC[C@H](O)CC1=CC[C@@H]1[C@@H]2CC[C@]2(C)/C(=C(/F)CO)CC[C@@H]12 | 214 to 216 °C

Now look at this entry.
Need melting point of C[C@]12CC[C@H](O)CC1=CC[C@@H]1[C@@H]2CC[C@]2(C)/C(=C(\F)CO)CC[C@@H]12 , thanks. 198 to 203 °C

* * *

// values below are reported % Inhibition
# Test system: cynomologous monkey C17,20 lyase
# measurement-notes: In vitro C17,20 lyase assay (testicular microsomes)
# Type: biochemical, cynomolgus monkey
# Set-up: unit of the concentration uncertain
# cond: Conc. 10 (unit uncertain), Preinc. 40 min
Supply the numeric figure in %, leaving out any unit text.

Recorded % Inhibition, per entry:
compound | system-tested | measured-quantity | unit-abbrev | result-number
C[C@]12CC[C@H](O)CC1=CC[C@@H]1[C@@H]2CC[C@]2(C)/C(=C(\F)CO)CC[C@@H]12 [Z CH2OH] | cynomologous monkey C17,20 lyase | % Inhibition | % | 100
C/C(F)=C1/CC[C@H]2[C@@H]3CC=C4C[C@@H](O)CC[C@]4(C)[C@H]3CC[C@]12C [E CH3] | cynomologous monkey C17,20 lyase | % Inhibition | % | 94
C[C@]12CC[C@H](O)CC1=CC[C@@H]1[C@@H]2CC[C@]2(C)/C(=C(/F)CO)CC[C@@H]12 [E CH2OH] | cynomologous monkey C17,20 lyase | % Inhibition | % | 87

Now look at this entry.
Need % Inhibition of C/C(F)=C1\CC[C@H]2[C@@H]3CC=C4C[C@@H](O)CC[C@]4(C)[C@H]3CC[C@]12C [Z CH3] , thanks. 94

* * *

# System: cynomologous monkey C17,20 lyase
# measurement-notes: In vitro C17,20 lyase assay (testicular microsomes)
# Assay type: biochemical, cynomolgus monkey
# Design: unit of the concentration uncertain
# cond: Conc. 1 (unit uncertain), Preinc. 40 min
// values below are reported % Inhibition

Recorded % Inhibition, per entry:
smiles-string | % Inhibition
C[C@]12CC[C@H](O)CC1=CC[C@@H]1[C@@H]2CC[C@]2(C)/C(=C(/F)CO)CC[C@@H]12 | 61%
C[C@]12CC[C@H](O)CC1=CC[C@@H]1[C@@H]2CC[C@]2(C)/C(=C(\F)CO)CC[C@@H]12 | 94%
C/C(F)=C1\CC[C@H]2[C@@H]3CC=C4C[C@@H](O)CC[C@]4(C)[C@H]3CC[C@]12C | 72%

Now look at this entry.
Need % Inhibition of C/C(F)=C1/CC[C@H]2[C@@H]3CC=C4C[C@@H](O)CC[C@]4(C)[C@H]3CC[C@]12C , thanks. 60%

* * *

# System: cynomologous monkey C17,20 lyase
# measurement-notes: In vitro C17,20 lyase assay (testicular microsomes)
# Assay type: biochemical, cynomolgus monkey
# Set-up: unit of the concentration uncertain
# cond: Conc. 10 (unit uncertain), Preinc. 0 min
measured-quantity: % Inhibition (%)
Supply the numeric figure in %, leaving out any unit text.

smiles-string | % Inhibition (%)
C[C@]12CC[C@H](O)CC1=CC[C@@H]1[C@@H]2CC[C@]2(C)/C(=C(/F)CO)CC[C@@H]12 | 85
C/C(F)=C1/CC[C@H]2[C@@H]3CC=C4C[C@@H](O)CC[C@]4(C)[C@H]3CC[C@]12C | 88
C[C@]12CC[C@H](O)CC1=CC[C@@H]1[C@@H]2CC[C@]2(C)/C(=C(\F)CO)CC[C@@H]12 | 100

Now look at this entry.
// fetch cynomologous monkey C17,20 lyase % Inhibition for C/C(F)=C1\CC[C@H]2[C@@H]3CC=C4C[C@@H](O)CC[C@]4(C)[C@H]3CC[C@]12C 78
